Each recorded value in this set is attributed to patent US11203571B2.

Quick reference for log10 IC50 among some compounds
# targetDesc: human Nav1.8 (Homo sapiens (Human))
# Sequence (Q9Y5Y9 whole entry): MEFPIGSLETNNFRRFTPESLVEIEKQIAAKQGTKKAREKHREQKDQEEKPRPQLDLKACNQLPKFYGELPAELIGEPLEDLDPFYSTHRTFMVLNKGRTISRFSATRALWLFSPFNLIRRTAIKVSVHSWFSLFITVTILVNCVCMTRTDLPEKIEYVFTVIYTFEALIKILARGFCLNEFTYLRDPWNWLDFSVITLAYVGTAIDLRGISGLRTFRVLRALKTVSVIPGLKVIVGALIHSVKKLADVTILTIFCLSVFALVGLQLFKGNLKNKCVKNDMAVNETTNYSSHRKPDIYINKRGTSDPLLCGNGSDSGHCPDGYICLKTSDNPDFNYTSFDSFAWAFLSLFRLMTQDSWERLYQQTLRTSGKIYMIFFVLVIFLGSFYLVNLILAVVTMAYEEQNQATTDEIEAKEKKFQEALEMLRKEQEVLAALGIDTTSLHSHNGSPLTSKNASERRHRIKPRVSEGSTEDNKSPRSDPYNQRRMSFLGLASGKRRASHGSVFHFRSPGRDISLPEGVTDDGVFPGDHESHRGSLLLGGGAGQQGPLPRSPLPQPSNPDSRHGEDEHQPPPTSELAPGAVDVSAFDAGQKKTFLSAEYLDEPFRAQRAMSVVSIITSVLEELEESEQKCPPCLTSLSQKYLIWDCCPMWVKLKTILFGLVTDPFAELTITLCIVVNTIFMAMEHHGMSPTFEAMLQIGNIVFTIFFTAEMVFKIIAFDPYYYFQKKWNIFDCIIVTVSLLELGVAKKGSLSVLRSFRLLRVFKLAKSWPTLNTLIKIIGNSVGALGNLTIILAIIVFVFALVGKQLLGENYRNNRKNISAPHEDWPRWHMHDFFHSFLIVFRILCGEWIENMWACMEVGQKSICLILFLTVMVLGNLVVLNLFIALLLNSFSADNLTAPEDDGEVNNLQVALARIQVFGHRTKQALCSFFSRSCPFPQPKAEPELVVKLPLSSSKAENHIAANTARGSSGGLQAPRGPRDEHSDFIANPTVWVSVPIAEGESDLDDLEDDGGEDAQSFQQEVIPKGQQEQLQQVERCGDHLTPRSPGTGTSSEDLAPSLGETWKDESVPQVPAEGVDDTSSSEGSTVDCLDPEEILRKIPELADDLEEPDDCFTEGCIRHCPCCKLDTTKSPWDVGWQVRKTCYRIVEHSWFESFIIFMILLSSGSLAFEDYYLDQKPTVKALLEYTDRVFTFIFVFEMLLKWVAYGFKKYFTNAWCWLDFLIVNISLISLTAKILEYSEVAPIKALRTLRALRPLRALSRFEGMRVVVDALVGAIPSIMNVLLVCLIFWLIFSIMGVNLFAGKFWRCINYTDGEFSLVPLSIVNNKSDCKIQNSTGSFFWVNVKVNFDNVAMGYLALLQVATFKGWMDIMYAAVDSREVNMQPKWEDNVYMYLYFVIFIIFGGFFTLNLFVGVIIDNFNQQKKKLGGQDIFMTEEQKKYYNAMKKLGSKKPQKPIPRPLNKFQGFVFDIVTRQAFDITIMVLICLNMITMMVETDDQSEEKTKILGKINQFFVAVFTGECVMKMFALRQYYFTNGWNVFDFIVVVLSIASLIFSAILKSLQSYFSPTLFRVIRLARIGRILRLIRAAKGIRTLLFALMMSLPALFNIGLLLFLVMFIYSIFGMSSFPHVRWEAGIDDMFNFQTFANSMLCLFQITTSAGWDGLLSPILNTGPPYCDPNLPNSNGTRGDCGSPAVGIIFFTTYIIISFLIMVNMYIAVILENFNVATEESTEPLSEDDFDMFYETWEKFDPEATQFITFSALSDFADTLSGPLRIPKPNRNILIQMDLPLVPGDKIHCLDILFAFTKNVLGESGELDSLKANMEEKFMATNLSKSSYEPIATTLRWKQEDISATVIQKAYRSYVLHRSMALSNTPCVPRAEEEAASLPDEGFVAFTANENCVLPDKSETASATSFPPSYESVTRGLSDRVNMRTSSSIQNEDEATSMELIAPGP
# experiment: E-VIPR optical membrane potential assay with electrical stimulation
# studyConditions: HEK cells expressing human Nav1.8
Use the decimal logarithm of IC50 (nM).

Recorded log10 IC50, per entry:
# lineNotation, log10 IC50
rows = [
    ("NS(=O)(=O)c1cccc(NC(=O)c2ccc(C(F)(F)F)cc2Oc2ccc(F)cc2F)c1", 1.34),
    ("Cc1cc(F)ccc1Oc1cc(C#N)ccc1C(=O)Nc1cccc(S(N)(=O)=O)c1", 1.45),
    ("COc1cc(Cl)ccc1Oc1cc(C(F)(F)F)ccc1C(=O)Nc1cccc(S(N)(=O)=O)c1", 1.00),
]

For the compound shown here, NS(=O)(=O)c1cccc(NC(=O)c2cc(C(F)(F)F)ccc2Oc2ccc(OC(F)(F)F)cc2)c1 , give the reported log10 IC50.
1.00

Please answer likewise for COc1cc(F)ccc1Oc1cc(Cl)cc(Cl)c1C(=O)Nc1cccc(S(N)(=O)=O)c1
-0.05

Please answer likewise for COc1cc(F)ccc1Oc1cc(C#N)ccc1C(=O)Nc1cccc(S(N)(=O)=O)c1
1.30

Same read-out for COc1cc(Cl)ccc1Oc1cc(OC(F)(F)F)ccc1C(=O)Nc1cccc(S(N)(=O)=O)c1 ?
1.34

Please do the same for COc1ccccc1Oc1ccc(C(F)(F)F)cc1C(=O)Nc1cccc(S(N)(=O)=O)c1 as well.
1.15
